biological target: MecA (Staphylococcus aureus, UniProt Q7DHH4); test: Binding affinity against PBP2a receptor by competition analysis with [3H]benzylpenicillin using cell membrane fractions from the MRSA COL strain.
Sequence (Q7DHH4 whole entry): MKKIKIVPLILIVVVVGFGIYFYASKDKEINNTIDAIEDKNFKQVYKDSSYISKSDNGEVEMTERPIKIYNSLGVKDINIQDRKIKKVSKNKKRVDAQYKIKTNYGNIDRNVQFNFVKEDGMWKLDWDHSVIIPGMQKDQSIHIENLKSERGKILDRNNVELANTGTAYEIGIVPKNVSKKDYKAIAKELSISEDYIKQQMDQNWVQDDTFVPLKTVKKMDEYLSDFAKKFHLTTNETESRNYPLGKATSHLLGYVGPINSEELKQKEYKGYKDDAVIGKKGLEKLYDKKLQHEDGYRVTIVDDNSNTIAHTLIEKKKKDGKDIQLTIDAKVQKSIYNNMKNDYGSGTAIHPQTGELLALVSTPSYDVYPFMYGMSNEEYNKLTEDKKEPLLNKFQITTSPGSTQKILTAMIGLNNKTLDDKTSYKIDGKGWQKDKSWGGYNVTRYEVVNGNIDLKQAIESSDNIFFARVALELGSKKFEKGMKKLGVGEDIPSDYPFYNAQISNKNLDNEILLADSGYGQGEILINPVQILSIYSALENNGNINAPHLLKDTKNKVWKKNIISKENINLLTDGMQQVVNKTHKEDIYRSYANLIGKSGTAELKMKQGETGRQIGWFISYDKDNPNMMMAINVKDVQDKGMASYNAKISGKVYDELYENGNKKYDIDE
Endpoint: IC50 (nM)
Response body: numeric value in nM, unit text excluded.

For C[C@@H](O)[C@H]1C(=O)N2C(C(=O)O)=C(c3ccc4c(c3)-c3ccc(C[N+]56CC[N+](CC#N)(CC5)CC6)cc3C4=O)C[C@H]12.[Cl-].[Cl-] , what is its reported IC50?
474

Thanks! And C[C@@H](O)[C@H]1C(=O)N2C(C(=O)O)=C(c3ccc4c(c3)-c3ccc(C[N+]56CC[N+](C)(CC5)CC6)cc3C4=O)[C@H](C)[C@H]12.[Cl-].[Cl-] ?
1230

Thanks! And C[C@@H](O)[C@H]1C(=O)N2C(C(=O)O)=C(c3ccc4c(c3)-c3ccc(C[N+]56CC[N+](CC(=O)Nc7ccncc7)(CC5)CC6)cc3C4=O)[C@H](C)[C@H]12.[Cl-].[Cl-] ?
1190

* * *

test: Plasma clearance compared to Cilastatin evaluated in Rhesus monkeys at the dose of 10 mg/kg by iv bolus injection; type: ADME, organism-based; design: dose 10 mg/kg, route intravenous; details: cercopithecidae
Endpoint: clearance
Returns: string containing the numeric result and its unit.

For C[C@@H](O)[C@H]1C(=O)N2C(C(=O)O)=C(SCCN=CN)C[C@H]12 [IMIPENEM ANHYDROUS] , what is its reported clearance?
6.72 mL/min/kg

* * *

biological target: MecA (Staphylococcus aureus); experiment: Binding affinity against PBP2a receptor by competition analysis with [3H]benzylpenicillin using cell membrane fractions from the MRSA COL strain.
Endpoint: pIC50
Here pIC50 is given on a logarithmic scale as minus log10 of the concentration in mol/L.

Smiles Repr: C[C@@H](O)[C@H]1C(=O)N2C(C(=O)O)=C(c3ccc4c(c3)-c3ccc(C[N+]56CC[N+](CC(=O)Nc7ccc(O)cc7)(CC5)CC6)cc3C4=O)[C@H](C)[C@H]12.[Cl-].[Cl-]
pIC50: 6.19
--
Smiles Repr: CCCNC(=O)C[N+]12CC[N+](Cc3ccc4c(c3)C(=O)c3ccc(C5=C(C(=O)O)N6C(=O)[C@H]([C@@H](C)O)[C@H]6[C@H]5C)cc3-4)(CC1)CC2.[Cl-].[Cl-]
pIC50: 5.91

For C[C@@H](O)[C@H]1C(=O)N2C(C(=O)O)=C(c3ccc4c(c3)-c3ccc(C[N+]56CC[N+](CC(=O)N(C)C)(CC5)CC6)cc3C4=O)[C@H](C)[C@H]12.[Cl-].[Cl-] , what is its reported pIC50?
6.24

* * *

target: MecA (Staphylococcus aureus, UniProt Q7DHH4); assay: Binding affinity against PBP2a receptor by competition analysis with [3H]benzylpenicillin using cell membrane fractions from the MRSA COL strain.
Listed below: pIC50 values for each entry.
Here pIC50 is given on a logarithmic scale as minus log10 of the concentration in mol/L.

Examples from the recorded data:
Smiles Repr: CCC[N+]12CC[N+](Cc3ccc4c(c3)C(=O)c3ccc(C5=C(C(=O)O)N6C(=O)[C@H]([C@@H](C)O)[C@H]6C5)cc3-4)(CC1)CC2.[Cl-].[Cl-]
Endpoint Result: 6.34

Smiles Repr: C[C@@H](O)[C@H]1C(=O)N2C(C(=O)O)=C(c3ccc4c(c3)-c3ccc(C[N+]56CC[N+](Cc7ccccc7)(CC5)CC6)cc3C4=O)[C@H](C)[C@H]12.[Cl-].[Cl-]
Endpoint Result: 5.49

Smiles Repr: C[C@@H](O)[C@H]1C(=O)N2C(C(=O)O)=C(c3ccc4c(c3)-c3ccc(C[N+]56CC[N+](CC(=O)Nc7ccc(CCO)cc7)(CC5)CC6)cc3C4=O)[C@H](C)[C@H]12.[Cl-].[Cl-]
Endpoint Result: 5.88

For C[C@@H](O)[C@H]1C(=O)N2C(C(=O)O)=C(c3ccc4c(c3)-c3ccc(C[N+]56CC[N+](CCCC(N)=O)(CC5)CC6)cc3C4=O)[C@H](C)[C@H]12.[Cl-].[Cl-] , what is its reported pIC50?
5.53

Thanks! And C[C@@H](O)[C@H]1C(=O)N2C(C(=O)O)=C(c3ccc4c(c3)-c3ccc(C[N+]56CC[N+](CCCO)(CC5)CC6)cc3C4=O)C[C@H]12.[Cl-].[Cl-] ?
5.90

Source of measurements: ChEMBL document CHEMBL1131884
